test system: BT474 breast tumor cell line; test: BT474 assay (Alamar blue); assay type: cell-based; conditions: Homo sapiens, BT-474, 72 h
pEC50: −log10 of the molar value. Square brackets hold non-standard residues; d marks the D form. Peptide text beside a SMILES is read from it. NMeTrp(1-(4-Br-benzyl)) = CN[C@@H](Cc1cn(Cc2ccc(Br)cc2)c2ccccc12)C(=O)O; Butanoyl(2R-oxy,4-CN) = N#CCC[C@@H](O)C(=O)O; Abu(4,4,4-F3) = N[C@@H](CC(F)(F)F)C(=O)O; NMeL = CN[C@@H](CC(C)C)C(=O)O; NMeA = CN[C@@H](C)C(=O)O
Label scheme for pEC50: lower than 6 is 0 (no), 6 and above is 1 (yes).

CC(C)C[C@@H]1NC(=O)[C@H](Cc2cn(Cc3ccc(Br)cc3)c3ccccc23)N(C)C(=O)[C@H](CC(F)(F)F)NC(=O)[C@H](CC(C)C)N(C)C(=O)[C@H](CC(F)(F)F)NC(=O)[C@@H](CCC#N)OC(=O)[C@H](C)N(C)C1=O [C-58] (cyclo(L[NMeA][Butanoyl(2R-oxy,4-CN)][Abu(4,4,4-F3)][NMeL][Abu(4,4,4-F3)][NMeTrp(1-(4-Br-benzyl))])): 1 (yes)
CC(C)C[C@@H]1NC(=O)[C@H](Cc2cn(Cc3ccc(F)nc3)c3ccccc23)N(C)C(=O)[C@H](CC(C)C)NC(=O)[C@H](CC(C)C)N(C)C(=O)[C@H](CC(C)C)NC(=O)[C@@H](CCC#N)OC(=O)[C@H](C)N(C)C1=O [C-36] (HELM PEPTIDE1{L.[meA].[N#CCC[C@@H](O[*:1])C(=O)[*:2]].L.[meL].L.[CN([C@@H](Cc1cn(Cc2ccc(F)nc2)c2ccccc12)C(=O)[*:2])[*:1]]}$PEPTIDE1,PEPTIDE1,1:R1-7:R2$$$V2.0): 0 (no)
CC(C)C[C@@H]1NC(=O)[C@H](Cc2cn(Cc3cccc(OC(F)F)c3)c3ccccc23)N(C)C(=O)[C@H](CC(C)C)NC(=O)[C@H](CC(C)C)N(C)C(=O)[C@H](CC(C)C)NC(=O)[C@@H](CCC#N)OC(=O)[C@H](C)N(C)C1=O [C-76] (HELM PEPTIDE1{L.[meA].[N#CCC[C@@H](O[*:1])C(=O)[*:2]].L.[meL].L.[CN([C@@H](Cc1cn(Cc2cccc(OC(F)F)c2)c2ccccc12)C(=O)[*:2])[*:1]]}$PEPTIDE1,PEPTIDE1,1:R1-7:R2$$$V2.0): 0 (no)
CC(C)C[C@@H]1NC(=O)[C@H](Cc2cn(Cc3cccc(Br)c3)c3ccccc23)N(C)C(=O)[C@H](CC(C)C)NC(=O)[C@H](CC(C)C)N(C)C(=O)[C@H](CC(C)C)NC(=O)[C@@H](CCC#N)OC(=O)[C@H](C)N(C)C1=O [C-77] (HELM PEPTIDE1{L.[meA].[N#CCC[C@@H](O[*:1])C(=O)[*:2]].L.[meL].L.[CN([C@@H](Cc1cn(Cc2cccc(Br)c2)c2ccccc12)C(=O)[*:2])[*:1]]}$PEPTIDE1,PEPTIDE1,1:R1-7:R2$$$V2.0): 0 (no)
CC(C)C[C@@H]1NC(=O)[C@H](Cc2cn(Cc3ccc(F)cc3)c3ccccc23)N(C)C(=O)[C@H](CC(C)C)NC(=O)[C@H](CC(C)C)N(C)C(=O)[C@H](CC(C)C)NC(=O)[C@@H](CCC#N)OC(=O)[C@H](C)N(C)C1=O [C-12] (HELM PEPTIDE1{L.[meA].[N#CCC[C@@H](O[*:1])C(=O)[*:2]].L.[meL].L.[CN([C@@H](Cc1cn(Cc2ccc(F)cc2)c2ccccc12)C(=O)[*:2])[*:1]]}$PEPTIDE1,PEPTIDE1,1:R1-7:R2$$$V2.0): 1 (yes)

Does the reported pEC50 for CCCC[C@@H]1NC(=O)[C@@H](CCC#N)OC(=O)[C@H](C)N(C)C(=O)[C@H](CC(C)C)NC(=O)[C@H](Cc2cn(Cc3ccc(C(F)(F)F)cc3)c3ccccc23)N(C)C(=O)[C@H](CC(C)C)NC(=O)[C@H](CC(C)C)N(C)C1=O [C-46] (HELM PEPTIDE1{L.[meA].[N#CCC[C@@H](O[*:1])C(=O)[*:2]].[Nle].[meL].L.[CN([C@@H](Cc1cn(Cc2ccc(C(F)(F)F)cc2)c2ccccc12)C(=O)[*:2])[*:1]]}$PEPTIDE1,PEPTIDE1,1:R1-7:R2$$$V2.0) fall at or above the 6 mark? 0 (no)

How about this molecule: CC(C)C[C@@H]1NC(=O)[C@H](Cc2ccccc2)N(C)C(=O)[C@H](CC(C)C)NC(=O)[C@H](CC(C)C)N(C)C(=O)[C@H](CC(C)C)NC(=O)[C@@H](CCC#N)OC(=O)[C@H](C)N(C)C1=O [C-37] (HELM PEPTIDE1{L.[meA].[N#CCC[C@@H](O[*:1])C(=O)[*:2]].L.[meL].L.[meF]}$PEPTIDE1,PEPTIDE1,1:R1-7:R2$$$V2.0) 0 (no)
